// provenance: patent US20220064302A1

Here the recorded kon is given for each entry.
- study.target: T1, human PD-1 (soluble PD-1 protein, R&D Systems) (human, UniProt Q15116 25-170, limits assumed)
- T1 construct: the kinetics paragraphs say only 'PD-1' / 'antigen'; also called hPD-1; soluble PD-1 immunogen
- T1 sequence (Q15116 25-170 limits assumed): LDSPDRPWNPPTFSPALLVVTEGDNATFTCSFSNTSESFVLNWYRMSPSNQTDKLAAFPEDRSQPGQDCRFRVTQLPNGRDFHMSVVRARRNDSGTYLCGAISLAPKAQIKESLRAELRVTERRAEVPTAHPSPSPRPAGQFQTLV
- assay.protocol: BLI (ForteBio), mAb on AHC biosensor, PD-1 as analyte
Supply the numeric figure in M⁻¹ s⁻¹, leaving out any unit text.

The examples below pair each entry with its known result.
A22 (antibody, V domains shown, Tested as full-length mAb expressed in CHO cells; also called antibody 22; L22H22) VH: QVQLVESGGGVVQPGRSLRLSCAASGFTFSNYGMHWVRQAPGKGLEWVAVIWYDGSNKYYADSVKGRFTISRDNSKNTLYLQMNSLRAEDTAVYYCARLYYYDSSGYYPDAFDIWGQGTMVTVSS VL: DIQMTQSPSSLSASVGDRVTITCRASQGIRNDLGWYQQKPGKAPKRLIYAASSLQSGVPSRFSGSGSGTEFTLTISSLQPEDFATYYCLQHNSYPFTFGPGTKVEIK | 16200
A23 (antibody, V domains shown, Tested as full-length mAb expressed in CHO cells; also called antibody 23; L23H23) VH: QVQLVESGGGVVQPGRSLRLSCVASGFTFSNYGMHWVRQAPGKGLEWVAIIWYDGSIKYYADSVKGRFTISRDNSKNTLHLQMNSLRAEDTAVYYCARWGIYFDYWGQGTLVTVSS VL: EIVMTQSPATLSVSPGERATLSCRASQSVSSNLAWYQQKPGQAPRLLIYGASTRATGIPARFSGSGSGTEFTLTISSLQSEDFAVYYCQQYHNWPLTFGGGTKVEIK | 22000
A12 (antibody, V domains shown, Tested as full-length mAb expressed in CHO cells; also called antibody A12; L12H12) VH: QVQLVESGGGVVQPGRSLRLSCAASGFTFSSYGMHWVRQAPGKGLEWVAVIWYDGSNKYYADSVKGRFTISRDNSKNTLYLQMNSLRAEDSAVYYCVCNPFDYWGQGTLVTVSS VL: DIQMTQSPSSLSASVGDRVTVTCRSSQGIAHYLAWYQQKPGKVPKVLLYAASTLQSGVPSRFSGSGSGTDFTLTISSLQPEDVATYYCQKYNSAPYTFGQGTKLEIK | 102000
A21 (antibody, V domains shown, Tested as full-length mAb expressed in CHO cells; also called antibody 21; L21H21) VH: QVQLVQSGAEVKKPGASVKVSCKASGYTFTSYYMHWVRQAPGQGLEWMGIINPSGSSTSYAQKFQGRVTMTRDTSTSTVYMELSSLRSEDTAVYYCARYGVWGSYRSLDYWGQGTLVTVSS VL: AIQMTQSPSSLSASVGDRVTITCRASQGIRNELGWYQQKPGKAPKLLICAASSLQSGVPSRFSGSGSGTDFTLTISSLQPEDFATYYCLQDYIYPYTFGQGTKLEIK | 110000

Now consider a different binder.
Lookup: Fill in kon for record A27 (antibody, V domains shown, Tested as full-length mAb expressed in CHO cells; also called antibody 27; L27H27) VH: QVQLVQSGAELVRPGTSVKLSCRASGYTFTTYWMHWVKQRPGQGLEWIGVIDPSDSYTYYNQKFKGKATLTVDTSSSTAYMQLSSLTSEDSAVYFCARNWDYWGQGTTLTVSS VL: AIQLTQSPSSLSASVGDRVTITCRASQGISSALAWYQQKPGKAPKLLIYDASSLESGVPSRFSGSGSGTDFTLTISSLQPEDFATYYCQQFNDYALTFGGGTKVEIK
Found: 70400
